Assay: clinical
Conditions: human, in vivo
CL renal vs 0.5 mL/min/kg: at or above is MET, below is NOT MET.

Query string: Given C[C@@H]1O[C@@H]1P(=O)(O)O [FOSFOMYCIN] , state whether its CL renal is at least 0.5 mL/min/kg.
Result string: MET

Query string: Given C[C@H](Cn1cnc2c(N)ncnc21)OCP(=O)(O)O [TENOFOVIR ANHYDROUS] , state whether its CL renal is at least 0.5 mL/min/kg.
Result string: MET

Query string: Given CCc1nn(CCCN2CCN(c3cccc(Cl)c3)CC2)c(=O)n1CCOc1ccccc1 [NEFAZODONE] , state whether its CL renal is at least 0.5 mL/min/kg.
Result string: NOT MET

Query string: Given COc1ccc2c3c1O[C@H]1C[C@@H](O)C=C[C@@]31CCN(C)C2 [GALANTAMINE] , state whether its CL renal is at least 0.5 mL/min/kg.
Result string: MET

Query string: Given CC1(C)S[C@@H]2[C@H](NC(=O)C(C(=O)O)c3ccccc3)C(=O)N2[C@H]1C(=O)O (stereo partly drawn) [CARBENICILLIN] , state whether its CL renal is at least 0.5 mL/min/kg.
Result string: MET

Query string: Given NCC1(CC(=O)O)CCCCC1 [GABAPENTIN] , state whether its CL renal is at least 0.5 mL/min/kg.
Result string: MET

Query string: Given Cn1c(=O)c2c(ncn2C)n(C)c1=O [CAFFEINE] , state whether its CL renal is at least 0.5 mL/min/kg.
Result string: NOT MET

Query string: Given Nc1nc2c(ncn2CCC(CO)CO)c(=O)[nH]1 [PENCICLOVIR] , state whether its CL renal is at least 0.5 mL/min/kg.
Result string: MET

Query string: Given CN(C)CCc1c[nH]c2ccc(CS(=O)(=O)N3CCCC3)cc12 [ALMOTRIPTAN] , state whether its CL renal is at least 0.5 mL/min/kg.
Result string: MET

Query string: Given CO[C@H]1/C=C/O[C@@]2(C)Oc3c(C)c(O)c4c(O)c(c(/C=N/N5CCN(C)CC5)c(O)c4c3C2=O)NC(=O)/C(C)=C\C=C\[C@H](C)[C@H](O)[C@@H](C)[C@@H](O)[C@@H](C)[C@H](OC(C)=O)[C@@H]1C [RIFAMPIN] , state whether its CL renal is at least 0.5 mL/min/kg.
Result string: NOT MET

Query string: Given CN(C)C(=O)Oc1ccc[n+](C)c1 [PYRIDOSTIGMINE] , state whether its CL renal is at least 0.5 mL/min/kg.
Result string: MET

Query string: Given CC(=O)Nc1ccc(OCC(O)CNC(C)C)cc1 (stereo not drawn) [PRACTOLOL] , state whether its CL renal is at least 0.5 mL/min/kg.
Result string: MET

Query string: Given CCS(=O)(=O)CCn1c([N+](=O)[O-])cnc1C [TINIDAZOLE] , state whether its CL renal is at least 0.5 mL/min/kg.
Result string: NOT MET

Query string: Given CNS(=O)(=O)Cc1ccc2[nH]cc(CCN(C)C)c2c1 , state whether its CL renal is at least 0.5 mL/min/kg.
Result string: MET

Query string: Given COc1ccc([C@]2(C#N)CC[C@@H](C(=O)O)CC2)cc1OC1CCCC1 [CILOMILAST] , state whether its CL renal is at least 0.5 mL/min/kg.
Result string: NOT MET

Query string: Given Cc1cn([C@H]2C=C[C@@H](CO)O2)c(=O)[nH]c1=O [STAVUDINE] , state whether its CL renal is at least 0.5 mL/min/kg.
Result string: MET

Query string: Given CCOC(=O)C1=C(C)NC(C)=C(C(=O)OC)C1c1cccc([N+](=O)[O-])c1 (stereo not drawn) [NITRENDIPINE] , state whether its CL renal is at least 0.5 mL/min/kg.
Result string: NOT MET

Query string: Given CC[C@@H](CO)NCCN[C@@H](CC)CO [ETHAMBUTOL] , state whether its CL renal is at least 0.5 mL/min/kg.
Result string: MET

Query string: Given CCN(CC)CCNC(=O)c1ccc(NC(C)=O)cc1 [ACECAINIDE] , state whether its CL renal is at least 0.5 mL/min/kg.
Result string: MET

Query string: Given CCN(CC)C(=O)/C(C#N)=C/c1cc(O)c(O)c([N+](=O)[O-])c1 [ENTACAPONE] , state whether its CL renal is at least 0.5 mL/min/kg.
Result string: MET

Query string: Given COc1nc(C)nc(Cl)c1N=C1NCCN1 [MOXONIDINE] , state whether its CL renal is at least 0.5 mL/min/kg.
Result string: MET

Query string: Given CC(=O)O[C@H]1C(=O)[C@@]2(C)[C@H]([C@H](OC(=O)c3ccccc3)[C@]3(O)C[C@H](OC(=O)[C@H](O)[C@@H](NC(=O)c4ccccc4)c4ccccc4)C(C)=C1C3(C)C)[C@]1(OC(C)=O)CO[C@@H]1C[C@@H]2O [PACLITAXEL] , state whether its CL renal is at least 0.5 mL/min/kg.
Result string: MET

Query string: Given Nc1ccc(S(=O)(=O)Nc2ncccn2)cc1 [SULFADIAZINE] , state whether its CL renal is at least 0.5 mL/min/kg.
Result string: NOT MET

Query string: Given CO/N=C(\C(=O)N[C@@H]1C(=O)N2C(C(=O)O)=C(CSc3nc(=O)c(=O)[nH]n3C)CS[C@H]12)c1csc(N)n1 [CEFTRIAXONE] , state whether its CL renal is at least 0.5 mL/min/kg.
Result string: NOT MET

Query string: Given Oc1ccc2c3c1O[C@H]1[C@@H](O)CC[C@@]4(O)[C@@H](C2)N(CC2CCC2)CC[C@]314 [NALBUPHINE] , state whether its CL renal is at least 0.5 mL/min/kg.
Result string: MET

Query string: Given Cc1nnc2n1-c1ccc(Cl)cc1C(c1ccccc1)=NC2 [ALPRAZOLAM] , state whether its CL renal is at least 0.5 mL/min/kg.
Result string: NOT MET

Query string: Given COC(=O)Nc1nc2ccc(C(=O)c3ccccc3)cc2[nH]1 [MEBENDAZOLE] , state whether its CL renal is at least 0.5 mL/min/kg.
Result string: NOT MET

Query string: Given CCCN(CCC)S(=O)(=O)c1ccc(C(=O)O)cc1 [PROBENECID] , state whether its CL renal is at least 0.5 mL/min/kg.
Result string: NOT MET

Query string: Given C[C@]12C=CC(=O)C=C1CC[C@@H]1[C@@H]2C(=O)C[C@@]2(C)[C@H]1CC[C@]2(O)C(=O)CO [PREDNISONE] , state whether its CL renal is at least 0.5 mL/min/kg.
Result string: NOT MET

Query string: Given CC1=NS(=O)(=O)c2cc(Cl)ccc2N1 [DIAZOXIDE] , state whether its CL renal is at least 0.5 mL/min/kg.
Result string: NOT MET

Query string: Given CC[C@H]1OC(=O)[C@H](C)[C@@H](O[C@H]2C[C@@](C)(OC)[C@@H](O)[C@H](C)O2)[C@H](C)[C@@H](O[C@@H]2O[C@H](C)C[C@H](N(C)C)[C@H]2O)[C@](C)(O)C[C@@H](C)CN(C)[C@H](C)[C@@H](O)[C@]1(C)O [AZITHROMYCIN] , state whether its CL renal is at least 0.5 mL/min/kg.
Result string: NOT MET

Query string: Given CC[C@H]1OC(=O)[C@H](C)[C@@H](O[C@H]2C[C@@](C)(OC)[C@@H](O)[C@H](C)O2)[C@H](C)[C@@H](O[C@@H]2O[C@H](C)C[C@H](N(C)C)[C@H]2O)[C@](C)(O)C[C@@H](C)C(=O)[C@H](C)[C@@H](O)[C@]1(C)O [ERYTHROMYCIN] , state whether its CL renal is at least 0.5 mL/min/kg.
Result string: NOT MET

* * *

Experiment: Total body clearance in human
Settings: in vivo
Quantity measured: clearance (mL/min/kg)
Give the value in mL/min/kg but do not write mL/min/kg after it.

Query string: Give its clearance value. Item: N[C@@H](CC(=O)N1CCn2c(nnc2C(F)(F)F)C1)Cc1cc(F)c(F)cc1F
Result string: 6

Query string: Give its clearance value. Item: CN1CCCC(n2nc(Cc3ccc(Cl)cc3)c3ccccc3c2=O)CC1 (stereo not drawn)
Result string: 9

Query string: Give its clearance value. Item: C#CCN(C)[C@H](C)Cc1ccccc1
Result string: 20

Query string: Give its clearance value. Item: CCN1CCCC1CNC(=O)c1cc(S(=O)(=O)CC)c(N)cc1OC (stereo not drawn) [AMISULPRIDE]
Result string: 7.8

Query string: Give its clearance value. Item: CN[C@@H]1[C@@H](O)[C@@H](O[C@@H]2[C@@H](O)[C@H](O[C@H]3OC(CN)=CC[C@H]3N)[C@@H](N)C[C@H]2N)OC[C@]1(C)O
Result string: 1

Query string: Give its clearance value. Item: CN(C)[C@@H]1C(O)=C(C(N)=O)C(=O)[C@@]2(O)C(O)=C3C(=O)c4c(O)cccc4[C@@](C)(O)[C@H]3[C@H](O)[C@@H]12
Result string: 2

Query string: Give its clearance value. Item: CCCn1c(=O)[nH]c(=O)c2[nH]cnc21
Result string: 4

Query string: Give its clearance value. Item: CN1CCN2c3ncccc3Cc3ccccc3C2C1 (stereo not drawn)
Result string: 8

Value source: ChEMBL document CHEMBL1151930
